# System: SW-694
# assay_details: Cytotoxic activity (M) panel, Fibrosarcoma SW-694
# recorded_conditions: read-out: CYTOTOXIC ACTIVITY (M) SW-694
value_kind: log10(IC50) (log10 of the value in M)
// units: M (pre-log); metric: IC50; scale: log10

| compound | log10(IC50) |
| --- | --- |
| COc1c(C)cc2c(c1O)[C@@H]1C3Cc4c(OC(C)=O)c(C)c5c(c4[C@H](COC(=O)/C=C/c4ccccc4)N3[C@@H](O)[C@H](C2)N1C)OCO5 (some centres unmarked) [drawing 234] | -5.17 |
| COc1c(C)cc2c(c1O)[C@@H]1C3Cc4c(OC(C)=O)c(C)c5c(c4[C@H](COC(=O)CCc4ccccc4)N3[C@@H](O)[C@H](C2)N1C)OCO5 (some centres unmarked) [drawing 235] | -5.07 |
| COc1c(C)cc2c(c1O)[C@@H]1C3Cc4c(OC(C)=O)c(C)c5c(c4[C@H](CNC(=O)/C=C/c4cccc(C(F)(F)F)c4)N3[C@@H](O)[C@H](C2)N1C)OCO5 (some centres unmarked) [drawing 211] | -9.00 |
| COc1c(C)cc2c(c1O)[C@@H]1C3Cc4c(OC(C)=O)c(C)c5c(c4[C@H](CNC(=O)/C=C/c4ccccc4)N3[C@@H](O)[C@H](C2)N1C)OCO5 (some centres unmarked) [drawing 213] | -5.86 |

Please find the next compound below.
// fetch log10(IC50); item: COc1c(C)cc2c(c1O)[C@@H]1C3Cc4c(OC(C)=O)c(C)c5c(c4[C@H](COC(=O)/C=C/c4cccc(C(F)(F)F)c4)N3[C@@H](O)[C@H](C2)N1C)OCO5 (some centres unmarked) [drawing 233] ; system: SW-694
-5.47
